B1: ZNF232 (parent)
chain: GKAYGWCSELIRHRRVHARKEPSH

Variants of: B1
Test: protein stability index of a GFP-peptide fusion (GPS, HEK-293T) (PSI 1-6); higher = more stable;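 also: lentivirally expressed fusions sorted by FACS into six bins by GFP to DsRed ratio, PSI derived from sequencing read proportions per bin multiplied by bin number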
Conditions: c terminus: a fixed tail appended
Provide the reported protein stability index of each item.
Simply state the number, no unit and no words.

Would you kindly share the measured protein stability index for S23Q ?
2.98

Would you kindly share the measured protein stability index for P22I ?
2.27

Would you kindly share the measured protein stability index for E9Y ?
2.18

Would you kindly share the measured protein stability index for R19H ?
2.66

Would you kindly share the measured protein stability index for R14H ?
2.77

Would you kindly share the measured protein stability index for H17F ?
2.49

Would you kindly share the measured protein stability index for G5E ?
2.89

Would you kindly share the measured protein stability index for R12T ?
3.1

Would you kindly share the measured protein stability index for Y4G ?
3.77

Would you kindly share the measured protein stability index for P22T ?
3.02

Would you kindly share the measured protein stability index for R19L ?
1.94

Would you kindly share the measured protein stability index for G5D ?
2.92

Would you kindly share the measured protein stability index for G5V ?
2.22

Would you kindly share the measured protein stability index for R12L ?
2.65

Would you kindly share the measured protein stability index for K20C ?
2.6

Would you kindly share the measured protein stability index for H13Y ?
2.24

Would you kindly share the measured protein stability index for W6H ?
3.67

Would you kindly share the measured protein stability index for R19F ?
2.15

Would you kindly share the measured protein stability index for H13Q ?
3.22

Would you kindly share the measured protein stability index for G5R ?
2.9

Would you kindly share the measured protein stability index for R15H ?
2.92

Would you kindly share the measured protein stability index for G1N ?
3.14

Would you kindly share the measured protein stability index for K20V ?
3.22

Would you kindly share the measured protein stability index for Y4W ?
2.62

Would you kindly share the measured protein stability index for V16Q ?
3.53

Would you kindly share the measured protein stability index for E9K ?
2.96

Would you kindly share the measured protein stability index for K2C ?
2.41

Would you kindly share the measured protein stability index for K2A ?
3.3

Would you kindly share the measured protein stability index for I11S ?
3.8

Would you kindly share the measured protein stability index for H17N ?
2.72

Would you kindly share the measured protein stability index for R14N ?
3.23

Would you kindly share the measured protein stability index for C7V ?
2.06

Would you kindly share the measured protein stability index for L10C ?
2.15

Would you kindly share the measured protein stability index for H24E ?
2.44

Would you kindly share the measured protein stability index for A18C ?
2.88

Would you kindly share the measured protein stability index for E21H ?
2.63

Would you kindly share the measured protein stability index for Y4P ?
4.12

Would you kindly share the measured protein stability index for R15A ?
2.81

Would you kindly share the measured protein stability index for H24M ?
2.5

Would you kindly share the measured protein stability index for H17Q ?
3.04
